# Tested on: T-47D breast
# assayComment: NCI tumour cell line growth inhibition, 48 h
propertyName: TGI

# input molecule: Cc1cc2c(c(C(=O)NCCC(=O)N[C@@H](C)C(=O)OCc3ccccc3)c1)Oc1c(cc(C)cc1C(=O)NCCC(=O)N[C@@H](C)C(=O)OCc1ccccc1)S2 ; wanted: its TGI
> 100 µM

# input molecule: COc1ccc2nc(NCN3C(=O)c4ccccc4C3=O)sc2c1 ; wanted: its TGI
> 100 µM

# input molecule: c1ccc(Nn2c(CCCCCCCCc3nnc(COc4ccccc4)n3Nc3ccccc3)nnc2COc2ccccc2)cc1 ; wanted: its TGI
> 300 µM

----------
# Tested on: COLO 205 colon
# assayComment: NCI tumour cell line growth inhibition, 48 h
propertyName: TGI

# input compound: CCO/C=C1\N=C(C(Cl)c2ccccc2)OC1=O (stereo not given) ; wanted: its TGI
> 100 µM

# input compound: COc1cc(C=O)c(-c2cc3c(cc2C2(C)OCCS2)OCO3)c(OC)c1OC (stereo not given) ; wanted: its TGI
16.1 µM

# input compound: COc1nc2ccc(CNc3ccc(C(=O)O)cc3)cc2nc1OC ; wanted: its TGI
> 10 µM

# input compound: O=[P+](O)c1cc2ccccc2c2ccccc12 ; wanted: its TGI
> 100 µM

# input compound: O=C1NC(=O)C(c2ccc(Cl)cc2)=C1Nc1ccc(Cl)c(C(=O)O)c1 ; wanted: its TGI
> 25 µM

----------
# Test system: A498 renal
# assayComment: NCI tumour cell line growth inhibition, 48 h
Record form. Attribute: TGI. Fill in for each entry.

# input compound: CN(C(=O)C12C3(C(=O)C(C)(C)C)C4C5(C#N)C3C1(C(=O)C(C)(C)C)C5C42C(=O)C(C)(C)C)C(C)(C)C (centres undefined) ; wanted: its TGI
> 50 µM

# input compound: COc1cc(/C=C2\N=C(C)N(n3c(-c4ccccc4)nc4ccccc4c3=O)C2=O)cc(OC)c1OC ; wanted: its TGI
> 100 µM

# input compound: COC(=O)C(Cc1ccccc1)NC(=O)c1ccc(CNC(=S)NCc2cccc(CNC(=S)NCc3ccccc3)c2)cc1 (centres undefined) ; wanted: its TGI
> 62.5 µM

# input compound: CN(C)C(=S)/N=c1\ss/c(=N\C(=S)N(C)C)n1-c1ccc(Cl)cc1 ; wanted: its TGI
> 100 µM

# input compound: C[C@H](N)C(=O)N[C@@H]1[C@H]2C(=C(O)C[C@@H](O)[C@@H]2O)C(=O)O[C@@H]1C ; wanted: its TGI
> 100 µM

# input compound: COP(=O)(OC)c1ccc(NCc2cc(O)ccc2O)cc1 ; wanted: its TGI
> 100 µM

# input compound: C[C@]12CC[C@H](O)CC1=CC[C@@H]1[C@@H]2CC[C@]2(C)c3nc(Cl)ccc3C[C@@H]12 ; wanted: its TGI
> 100 µM

# input compound: CCOC(=O)C1=CC(C)(C(=O)OCC)Nc2c(nc(SC)n(C)c2=O)N1 (centres undefined) ; wanted: its TGI
> 10 µM

# input compound: CCOc1ccccc1N1C(=O)C(=O)C(c2nc3ccccc3o2)/C(=N\N)C1=O (centres undefined) ; wanted: its TGI
> 100 µM

# input compound: c1ccc(CCN2CCN=C2Cc2ccccc2)cc1 ; wanted: its TGI
> 100 µM

# input compound: C[C@@H](NC(=O)[C@@H](CC(=O)N1CCC(N2CCCCC2)CC1)N1C(=O)[C@@H](N2C(=O)OC[C@@H]2c2ccccc2)[C@H]1/C=C/c1cccc(Cl)c1)c1ccccc1 ; wanted: its TGI
27.7 µM

# input compound: c1ccc(Nn2c(CCCCCCCCc3nnc(COc4ccccc4)n3Nc3ccccc3)nnc2COc2ccccc2)cc1 ; wanted: its TGI
> 300 µM

# input compound: COc1nc2ccc(CNc3ccc(C(=O)O)cc3)cc2nc1OC ; wanted: its TGI
> 10 µM

# input compound: CC1=Nc2c(C#N)ncn2N=C(C)C1 ; wanted: its TGI
> 100 µM

# input compound: N/C(=N\N=C\c1cc2c(cc1Cl)OCO2)NO ; wanted: its TGI
> 100 µM

# input compound: NC(CC(=O)Nc1ccc(Cl)cc1)=Nc1ccccc1 ; wanted: its TGI
> 100 µM

# input compound: C=CC[N+](CCO)(CCO)CCCCCCCCCCCCCCCCCC ; wanted: its TGI
42.5 µM

# input compound: O=C1OC(c2ccc(Cl)cc2)(c2ccc(Cl)cc2)c2c1ccc1ccccc21 ; wanted: its TGI
> 100 µM

# input compound: O=C(O)C1C(=O)Oc2c(cccc2[N+](=O)[O-])C1O (centres undefined) ; wanted: its TGI
> 100 µM

# input compound: O=S(=O)(O)c1cc(Nc2ccnc3ccccc23)c2c(S(=O)(=O)O)cc(S(=O)(=O)O)cc2c1 ; wanted: its TGI
> 100 µM

# input compound: CNc1ncnc2c1nnn2C ; wanted: its TGI
> 100 µM

# input compound: COc1cc2c(cc1OC(=O)c1cc3ccccc3[nH]1)N=C[C@@H]1CCCN1C2=O ; wanted: its TGI
0.599 µM

# input compound: COc1ccc(CCNC(=O)CCCCCO)cc1OC ; wanted: its TGI
> 100 µM

# input compound: CCNc1cc2c3c(c1)CCCN3CCC2 ; wanted: its TGI
65.3 µM

# input compound: CCC(=O)C(C)C(=O)C(=O)C(=O)OC (centres undefined) ; wanted: its TGI
> 100 µM

# input compound: CCOc1cc2c(cc1O)CC[C@@H]1[C@@H]2CC[C@]2(C)C(OS(=O)OC3CC[C@@H]4[C@H]5CCc6cc(O)c(OCC)cc6[C@@H]5CC[C@@]34C)CC[C@@H]12 (some centres undefined) ; wanted: its TGI
36.6 µM

# input compound: COC(=O)c1c(O)ccc2c1c1c(n2Cc2ccccn2)C(=O)c2ccccc2C1=O ; wanted: its TGI
> 100 µM

# input compound: Oc1ccc2ccccc2c1C1NN=C(c2ccccc2)S1 (centres undefined) ; wanted: its TGI
14.1 µM

# input compound: Cc1cc([N+](=O)[O-])ccc1NS(=O)(=O)c1cc(Cl)ccc1Cl ; wanted: its TGI
6.24 µM

# input compound: COc1ccc(S(=O)(=O)Nc2ccc(-c3csc(N4C(=O)/C(=C/c5ccccc5)N=C4c4ccccc4)n3)cc2)cc1Cl ; wanted: its TGI
48.7 µM

# input compound: CNC(=O)c1ccccc1[S+]1c2cccc3cccc(c23)C(=O)N1C (centres undefined) ; wanted: its TGI
> 100 µM

# input compound: Nc1nc2ccc3[nH]ncc3c2c2c1CCCC2 ; wanted: its TGI
3.49 µM

# input compound: O=c1nc(NC(c2ccccc2)(c2ccccc2)c2ccccc2)ccn1CCO ; wanted: its TGI
> 100 µM

# input compound: O=C(/C=C/c1cccc([N+](=O)[O-])c1)c1ccc(O)c(CN2CCN(c3cc4c(cc3F)c(=O)c(C(=O)O)cn4C3CC3)CC2)c1 ; wanted: its TGI
2.84 µM

----------
Record form. Attribute: GI50. Fill in for each entry.
# Test system: SF-295 CNS
# assayComment: NCI tumour cell line growth inhibition, 48 h

# input molecule: COc1ccc2c3c(c4ccccc4cc13)C(=O)N(CCN(C)CCN)C2=O ; wanted: its GI50
43.7 nM

# input molecule: COc1cc2c(cc1OC)C(CC1(O)CCCCC1)N(S(=O)(=O)c1ccc(C)cc1)CC2 (stereo not drawn) ; wanted: its GI50
> 10000 nM

# input molecule: O=C(NCCN1CCC(O)CC1)c1cc2c(o1)C(=O)c1ccccc1C2=O ; wanted: its GI50
149 nM

----------
# Test system: MCF7 breast
# assayComment: NCI tumour cell line growth inhibition, 48 h
Record form. Attribute: TGI. Fill in for each entry.

# input compound: O=C(NCCCCCCNC(=O)n1cc(F)c(=O)[nH]c1=O)NCCCOCCOCCOCCOCCOCCOCCOCCOCCOCCOCCOCCOCCOCCOCCOCCOCCOCCOCCOCCOCCOCCCNC(=O)C(O)C(O)C(OC1OC(CO)C(O)C(O)C1O)C(O)CO (stereo unspecified) ; wanted: its TGI
> 46.8 µM

# input compound: O=C(Nc1ccc2[nH]c(C(=O)N3CC(CCl)c4c3cc([N+](=O)[O-])c3ccccc43)cc2c1)c1cc2ccccc2o1 (stereo unspecified) ; wanted: its TGI
> 1100 µM

# input compound: N#CCSc1c(-c2ccccc2)c(=O)n(-c2ccccc2)c(=S)n1-c1ccccc1 ; wanted: its TGI
> 100 µM

# input compound: COc1ccc([I+]c2ccccc2)cc1 ; wanted: its TGI
> 100 µM

# input compound: N#CCOc1cccc(C2(N3CC=CCC3)CCCCC2)c1 ; wanted: its TGI
> 100 µM

# input compound: CC(C)=CCCC1(Sc2ccccc2)C(=O)OCC1C=C(C)C (stereo unspecified) ; wanted: its TGI
> 100 µM

# input compound: NC(=S)N/N=C/c1ccc(O)cn1 ; wanted: its TGI
> 1500 µM

# input compound: CCCCCCCCCCCCCCCCCCOc1ccc(/C=C/C2=[N+](CCCl)CCO2)cc1 ; wanted: its TGI
> 100 µM

# input compound: COC(=O)c1c(O)ccc2c1c1c(n2Cc2ccccn2)C(=O)c2ccccc2C1=O ; wanted: its TGI
> 100 µM

# input compound: COc1cc(C2c3cc4c(cc3OC3(OC)COC(=O)C23)OCO4)cc(OC)c1OC (stereo unspecified) ; wanted: its TGI
> 56.8 µM

# input compound: Cc1[nH]c(=O)nc2nc3ccc(Cl)cc3c(NC(C)(CO)CO)c12 ; wanted: its TGI
> 100 µM
